- Tested on: Carrageenin edema
- RUN DESCRIPTION: Antiinflammatory action (Carrageenin edema method)
- Format: in vivo, Jcl: SD rats
- CONDITION SUMMARY: Rattus norvegicus; 50 mg/kg oral, one hour before carrageenin; paw volume 3 hours later; rats; read-out: Inhibition rate, Carrageenin edema
# Lookup of reported inhibition in vivo at 50 mg/kg keyed by entry
Form entry: value (%) — number only.

Worked examples, 3 compounds total:
C=CCn1c(=O)c2c3n(nc2n(CC=C)c1=O)CCN3 [compound 29]
79
CCCCn1c(=O)n(CCC)c(=O)c2c3n(nc21)CCN3C(C)=O [compound 40]
82
C=CCn1c(=O)c2c(nn3cc[nH]c23)n(CC=C)c1=O [compound 45]
85

# return recorded inhibition in vivo at 50 mg/kg for entry CCCCn1c(=O)c2c3n(nc2n(CCCC)c1=O)CCN3 [compound 3]
100

# return recorded inhibition in vivo at 50 mg/kg for entry CCCCn1c(=O)n(CCC)c(=O)c2c1nn1cc[nH]c21 [compound 43]
109

====

- Test system: Phenyl quinone writhing
- RUN DESCRIPTION: Analgesic action (Phenyl quinone writhing method)
- Type: in vivo, Slc: ICR mice
- CONDITION SUMMARY: Mus musculus, 20 min; 50 mg/kg oral, 30 minutes before phenyl quinone; 20 minutes counting; mice; read-out: Inhibition rate, Phenyl quinone writhing
ENDPOINT LABEL: inhibition in vivo at 50 mg/kg (%)
Form entry: value (%) — number only.

Worked examples, 3 molecules total:
CCCCn1c(=O)n(CCC)c(=O)c2c3n(nc21)CCN3C(C)=O [compound 40]
89
CCCn1c(=O)c2c3n(nc2n(CCC(C)C)c1=O)CCN3 [compound 17]
79
CCCCn1c(=O)n(CCC)c(=O)c2c3n(nc21)CCN3 [compound 2]
100

# return recorded inhibition in vivo at 50 mg/kg for entry CCCCn1c(=O)c2c(nn3cc[nH]c23)n(CCCC)c1=O [compound 46]
96

# return recorded inhibition in vivo at 50 mg/kg for entry C=CCn1c(=O)c2c3n(nc2n(CC=C)c1=O)CCN3 [compound 29]
80

# return recorded inhibition in vivo at 50 mg/kg for entry CCn1c(=O)c2c3n(nc2n(CC)c1=O)CCN3 [compound 7]
52

# return recorded inhibition in vivo at 50 mg/kg for entry CCCCn1c(=O)c2c3n(nc2n(CCCC)c1=O)CCN3 [compound 3]
98

# return recorded inhibition in vivo at 50 mg/kg for entry CCCCCn1c(=O)n(CCC)c(=O)c2c3n(nc21)CCN3 [compound 6]
96

# return recorded inhibition in vivo at 50 mg/kg for entry CCCn1c(=O)c2c3n(nc2n(CCC)c1=O)CCN3C(=O)CC [compound 33]
77

# return recorded inhibition in vivo at 50 mg/kg for entry C=CCn1c(=O)n(CCC)c(=O)c2c1nn1cc[nH]c21 [compound 49]
80

# return recorded inhibition in vivo at 50 mg/kg for entry CCCn1c(=O)c2c3n(nc2n(CCC)c1=O)CCN3 [compound 13]
95

# return recorded inhibition in vivo at 50 mg/kg for entry C=CCn1c(=O)c2c(nn3cc[nH]c23)n(CC=C)c1=O [compound 45]
87

# return recorded inhibition in vivo at 50 mg/kg for entry CCCCn1c(=O)n(CCC)c(=O)c2c3n(nc21)CCN3C [compound 1]
97
